Experiment: Cytotoxicity against Swiss mouse peritoneal macrophages after 24 hrs by MTT assay
Assay type: cell-based, Peritoneal macrophage cell
# CC50 at 24 h binned as bottom = under 4 µM, middle = from 4 µM up to 10 µM, top = 10 µM and over

Assign a bin to CC1(C)OC2=C(C(=O)C(=O)c3ccccc32)C1n1cc(-c2ccccc2)nn1 (stereo not given)
bottom

Bin this entry: CCCc1cn(C2CC(C)(C)OC3=C2C(=O)c2ccccc2C3=O)nn1 (stereo not given)
top

Form field 'band' for CC1(C)OC2=C(C(=O)C(=O)c3ccccc32)C1n1cc(-c2ccc(F)cc2)nn1 (stereo not given)
bottom

* * *

Assay: Selectivity index, ratio of CC50 for Swiss mouse peritoneal macrophages to IC50 for antimony-sensitive Leishmania amazonensis MHOM/BR/1989/BA199 promastigote
Assay type: functional
Binary classification by Ratio CC50/IC50, with 1 as an inclusive lower bound for T; all other cases are F.

Could you tell me if the measured Ratio CC50/IC50 of Cc1ccc(-c2cn(C3C4=C(OC3(C)C)c3ccccc3C(=O)C4=O)nn2)cc1 (stereo not drawn) reaches 1 or more?
F

Next:
State whether the measured Ratio CC50/IC50 reaches 1, counting equality as reaching it, for CCCCCc1cn(C2CC(C)(C)OC3=C2C(=O)c2ccccc2C3=O)nn1 (stereo not drawn)
T

Kindly determine if Ratio CC50/IC50 recorded for `CC(C)=CC1=C(O)C(=O)c2ccccc2C1=O` is above or exactly 1.
F

Textbook exercise: given the entry CC1(C)OC2=C(C(=O)c3ccccc3C2=O)C1n1cc(C2CCCCC2)nn1 (stereo not drawn) , state whether its Ratio CC50/IC50 is greater than or equal to 1.
T

Has `O=C1C=C(n2cc(-c3ccc([N+](=O)[O-])cc3)nn2)C(=O)c2ccccc21` a recorded Ratio CC50/IC50 greater than or equal to 1?
F

Could you tell me if the measured Ratio CC50/IC50 of `O=C1C=C(n2cc(-c3ccccc3)nn2)C(=O)c2ccccc21` reaches 1 or more?
F

All values here come from ChEMBL document CHEMBL2375264.
